# subject of test: 5-hydroxytryptamine receptor 1A (Homo sapiens)
# Sequence (P08908 whole entry): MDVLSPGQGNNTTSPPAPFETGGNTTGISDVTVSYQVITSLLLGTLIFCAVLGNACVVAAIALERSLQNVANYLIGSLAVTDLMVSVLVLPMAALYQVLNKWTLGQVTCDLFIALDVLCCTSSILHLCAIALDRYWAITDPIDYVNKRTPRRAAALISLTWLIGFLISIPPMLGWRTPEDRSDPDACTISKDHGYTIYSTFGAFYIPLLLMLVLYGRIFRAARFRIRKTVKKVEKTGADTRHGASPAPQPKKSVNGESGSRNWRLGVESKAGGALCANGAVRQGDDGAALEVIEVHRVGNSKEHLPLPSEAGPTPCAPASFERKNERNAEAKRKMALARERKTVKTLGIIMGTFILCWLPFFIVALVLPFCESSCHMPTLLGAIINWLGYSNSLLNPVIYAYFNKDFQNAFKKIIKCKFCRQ
pKi: −log10 of the molar value. Counter-ions that a name gives are not always drawn.
observation type: pKi

INSERT INTO results (compound, relation_qualifier, obs_value) VALUES
  ('CN(C)CCC=C1c2ccccc2CCc2ccccc21', '=', 6.35),
  ('CC(NC(C)(C)C)C(=O)c1cccc(Cl)c1 (configuration not stated) [BUPROPION HYDROCHLORIDE]', '<', 5.00),
  ('COc1ccc(C(CN(C)C)C2(O)CCCCC2)cc1 (configuration not stated)', '<', 5.00),
  ('N[C@H]1CC[C@@H](c2ccc(Cl)c(Cl)c2)c2ccccc21', '<', 5.00),
  ('CNCCC=C1c2ccccc2CCc2ccccc21', '=', 6.53),
  ('CN(C)Cc1nnc2n1-c1ccc(Cl)cc1C(c1ccccc1)=NC2', '<', 5.00),
  ('CN(CCCN1c2ccccc2CCc2ccccc21)CC(=O)c1ccc(Cl)cc1', '=', 5.34);
